B1: CPEB3 Ribozyme (parent)
chain: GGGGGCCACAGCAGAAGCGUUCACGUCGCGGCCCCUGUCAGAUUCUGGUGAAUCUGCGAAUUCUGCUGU

# Variants of: B1
# assayText: self-cleavage, relative activity (ratio to wild type); higher = more cleavage; co-transcriptional
Entries and their self-cleavage

[
  {
    "variantLabel": "A10U C18U",
    "self-cleavage": 0.883
  },
  {
    "variantLabel": "C9G G56A",
    "self-cleavage": 1.01
  },
  {
    "variantLabel": "A42U A51G",
    "self-cleavage": 0.933
  },
  {
    "variantLabel": "A42G C54G",
    "self-cleavage": 0.71
  },
  {
    "variantLabel": "A52C G58C",
    "self-cleavage": 0.986
  },
  {
    "variantLabel": "A52G A59C",
    "self-cleavage": 0.793
  },
  {
    "variantLabel": "C12A U26A",
    "self-cleavage": 0.374
  },
  {
    "variantLabel": "A8C U38G",
    "self-cleavage": 0.245
  },
  {
    "variantLabel": "G4A A42U",
    "self-cleavage": 0.721
  },
  {
    "variantLabel": "C35G G68U",
    "self-cleavage": 0.687
  },
  {
    "variantLabel": "G19A C39G",
    "self-cleavage": 0.149
  },
  {
    "variantLabel": "C35G G47A",
    "self-cleavage": 0.477
  },
  {
    "variantLabel": "C7G G28C",
    "self-cleavage": 0.106
  },
  {
    "variantLabel": "G19C A23G",
    "self-cleavage": 0.11
  },
  {
    "variantLabel": "A13G G19C",
    "self-cleavage": 0.13
  },
  {
    "variantLabel": "A15C G25U",
    "self-cleavage": 0.192
  },
  {
    "variantLabel": "C6G U62C",
    "self-cleavage": 0.0999
  },
  {
    "variantLabel": "G30A U49A",
    "self-cleavage": 0.89
  },
  {
    "variantLabel": "C27G G47U",
    "self-cleavage": 0.17
  },
  {
    "variantLabel": "C7A A51U",
    "self-cleavage": 0.402
  },
  {
    "variantLabel": "A23C U67G",
    "self-cleavage": 0.968
  },
  {
    "variantLabel": "G31A U38G",
    "self-cleavage": 0.245
  },
  {
    "variantLabel": "U20C U61G",
    "self-cleavage": 0.226
  },
  {
    "variantLabel": "G37U U53A",
    "self-cleavage": 0.195
  },
  {
    "variantLabel": "C35U C57G",
    "self-cleavage": 0.302
  },
  {
    "variantLabel": "G30A G58U",
    "self-cleavage": 0.896
  },
  {
    "variantLabel": "G1U U20C",
    "self-cleavage": 0.068
  },
  {
    "variantLabel": "A15C U53C",
    "self-cleavage": 0.451
  },
  {
    "variantLabel": "U55C U61G",
    "self-cleavage": 0.434
  },
  {
    "variantLabel": "C45G U67G",
    "self-cleavage": 1.01
  },
  {
    "variantLabel": "A10C G48C",
    "self-cleavage": 0.992
  },
  {
    "variantLabel": "A16U G19C",
    "self-cleavage": 0.112
  },
  {
    "variantLabel": "G17A U43C",
    "self-cleavage": 0.336
  },
  {
    "variantLabel": "G41A U64A",
    "self-cleavage": 0.419
  },
  {
    "variantLabel": "C32G C57A",
    "self-cleavage": 0.252
  },
  {
    "variantLabel": "G4C G31U",
    "self-cleavage": 0.179
  },
  {
    "variantLabel": "G3A C18A",
    "self-cleavage": 0.066
  },
  {
    "variantLabel": "U36A U49C",
    "self-cleavage": 0.22
  },
  {
    "variantLabel": "A40U U44A",
    "self-cleavage": 0.609
  },
  {
    "variantLabel": "G58C U67G",
    "self-cleavage": 1.01
  },
  {
    "variantLabel": "G1U U46C",
    "self-cleavage": 0.0797
  },
  {
    "variantLabel": "C24A A42C",
    "self-cleavage": 0.629
  },
  {
    "variantLabel": "G19A U26C",
    "self-cleavage": 0.0939
  },
  {
    "variantLabel": "G14A U38G",
    "self-cleavage": 0.152
  },
  {
    "variantLabel": "G4U A40C",
    "self-cleavage": 0.199
  },
  {
    "variantLabel": "C22U C24A",
    "self-cleavage": 0.179
  }
]

Recorded values, source the RNAGym collection of RNA variant scans (doi:10.7554/elife.80360).
